All figures here come from the RNAGym collection of RNA variant scans (doi:10.1002/anie.201605470).

B1: Osa-1-4 twister ribozyme (parent)
chain: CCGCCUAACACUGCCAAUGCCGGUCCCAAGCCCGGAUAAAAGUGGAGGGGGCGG

Variants of: B1
EXPERIMENT_NOTES: self-cleavage, relative activity (ratio to wild type); higher = more cleavage; co-transcriptional
I would appreciate it if you labelled entries true (1) when self-cleavage is 0.06 or higher, otherwise false (0).

>  <VARIANT_DESIGNATION>
C15U G30A

>  <DISCRETE_LABEL>
false (0)

$$$$
>  <VARIANT_DESIGNATION>
C32G U37C

>  <DISCRETE_LABEL>
true (1)

$$$$
>  <VARIANT_DESIGNATION>
G22U U18G

>  <DISCRETE_LABEL>
true (1)

$$$$
>  <VARIANT_DESIGNATION>
A41G G42A

>  <DISCRETE_LABEL>
true (1)

$$$$
>  <VARIANT_DESIGNATION>
A29U C11A

>  <DISCRETE_LABEL>
false (0)

$$$$
>  <VARIANT_DESIGNATION>
C20U G34U

>  <DISCRETE_LABEL>
true (1)

$$$$
>  <VARIANT_DESIGNATION>
U24C U43G

>  <DISCRETE_LABEL>
false (0)

$$$$
>  <VARIANT_DESIGNATION>
A46C A8C

>  <DISCRETE_LABEL>
false (0)

$$$$
>  <VARIANT_DESIGNATION>
C52U G22U

>  <DISCRETE_LABEL>
true (1)

$$$$
>  <VARIANT_DESIGNATION>
C21A U18G

>  <DISCRETE_LABEL>
true (1)

$$$$
>  <VARIANT_DESIGNATION>
G22C U12G

>  <DISCRETE_LABEL>
false (0)

$$$$
>  <VARIANT_DESIGNATION>
G53U U43A

>  <DISCRETE_LABEL>
true (1)

$$$$
>  <VARIANT_DESIGNATION>
A8U G47U

>  <DISCRETE_LABEL>
false (0)

$$$$
>  <VARIANT_DESIGNATION>
A36G A40G

>  <DISCRETE_LABEL>
true (1)

$$$$
>  <VARIANT_DESIGNATION>
U18C U37C

>  <DISCRETE_LABEL>
true (1)

$$$$
>  <VARIANT_DESIGNATION>
G34A G50C

>  <DISCRETE_LABEL>
true (1)

$$$$
>  <VARIANT_DESIGNATION>
G19A U37C

>  <DISCRETE_LABEL>
true (1)

$$$$
>  <VARIANT_DESIGNATION>
A46U G49C

>  <DISCRETE_LABEL>
false (0)

$$$$
>  <VARIANT_DESIGNATION>
A36G C31G

>  <DISCRETE_LABEL>
true (1)

$$$$
>  <VARIANT_DESIGNATION>
A39C G23A

>  <DISCRETE_LABEL>
true (1)

$$$$
>  <VARIANT_DESIGNATION>
C27G G22A

>  <DISCRETE_LABEL>
false (0)

$$$$
>  <VARIANT_DESIGNATION>
G49A G50C

>  <DISCRETE_LABEL>
true (1)

$$$$
>  <VARIANT_DESIGNATION>
A10C C26G

>  <DISCRETE_LABEL>
false (0)

$$$$
>  <VARIANT_DESIGNATION>
A16C A41G

>  <DISCRETE_LABEL>
true (1)

$$$$
>  <VARIANT_DESIGNATION>
A10C G35A

>  <DISCRETE_LABEL>
true (1)

$$$$
>  <VARIANT_DESIGNATION>
C11U G54U

>  <DISCRETE_LABEL>
true (1)

$$$$
>  <VARIANT_DESIGNATION>
C14A U43G

>  <DISCRETE_LABEL>
true (1)

$$$$
>  <VARIANT_DESIGNATION>
A10G C27G

>  <DISCRETE_LABEL>
true (1)

$$$$
>  <VARIANT_DESIGNATION>
C21U G23A

>  <DISCRETE_LABEL>
true (1)

$$$$
>  <VARIANT_DESIGNATION>
C33U U24A

>  <DISCRETE_LABEL>
true (1)

$$$$
>  <VARIANT_DESIGNATION>
C25G C52A

>  <DISCRETE_LABEL>
true (1)

$$$$
>  <VARIANT_DESIGNATION>
C14U U18G

>  <DISCRETE_LABEL>
true (1)

$$$$
>  <VARIANT_DESIGNATION>
A10C G13C

>  <DISCRETE_LABEL>
false (0)

$$$$
>  <VARIANT_DESIGNATION>
A39C A41U

>  <DISCRETE_LABEL>
true (1)

$$$$
>  <VARIANT_DESIGNATION>
A17C G35U

>  <DISCRETE_LABEL>
true (1)

$$$$
>  <VARIANT_DESIGNATION>
A46G C14G

>  <DISCRETE_LABEL>
false (0)

$$$$
>  <VARIANT_DESIGNATION>
C25A C27U

>  <DISCRETE_LABEL>
false (0)

$$$$
>  <VARIANT_DESIGNATION>
G22C G45C

>  <DISCRETE_LABEL>
false (0)

$$$$
>  <VARIANT_DESIGNATION>
U12A U37G

>  <DISCRETE_LABEL>
true (1)

$$$$
>  <VARIANT_DESIGNATION>
G30A G45A

>  <DISCRETE_LABEL>
false (0)

$$$$
>  <VARIANT_DESIGNATION>
A41C G19C

>  <DISCRETE_LABEL>
true (1)

$$$$
>  <VARIANT_DESIGNATION>
G42U U37A

>  <DISCRETE_LABEL>
true (1)

$$$$
>  <VARIANT_DESIGNATION>
G45C U37A

>  <DISCRETE_LABEL>
false (0)

$$$$
